Listing: GI50 of selected molecules
Tested on: SK-MEL-2
Experiment: NCI tumour cell line growth inhibition, 48 h
The source made the active and inactive calls. No stated cut-off is given here; in the data, active = GI50 up to about 1.1 µM and inactive = higher.

Here's what some known entries look like.
> print(dat)
                                   molecule  tested.system  measurement.type            obs.value
1               CC(=O)c1ccc2c(ccc(=O)n2C)c1       SK-MEL-2              GI50  > 100 µM (inactive)
2  C/C(=N\O)c1ccc(OCc2cc(C(F)(F)F)cc(C(F)(F)F)c2)cc1       SK-MEL-2              GI50   57.1 µM (inactive)
3  Nc1nc2cc(CNc3ccc(C(=O)NC(CCC(=O)O)C(=O)O)cc3)ccc2nc1-c1ccccc1 (stereo not given)       SK-MEL-2              GI50   > 10 µM (inactive)

Next molecule, GI50 to be filled in.
Query string: Provide the documented GI50 with SK-MEL-2 as the system for CCOC(=O)C(Cc1ccc(N=NN(C)C)cc1)NC(=O)CC1c2ccccc2-c2ccccc21 (stereo not given)
Result string: > 100 µM (inactive)

====

System: UACC-257
Experiment: NCI tumour cell line growth inhibition, 48 h
Activity calls are given as the source filed them. Rule as the data show it: active = GI50 up to about 1.1 µM and inactive = higher.
measurement.type: GI50

# count of solved cases: 6
molecule	GI50
CCCCCCCCCCCCCCCc1nnc(SCC(=O)O)[nH]1	> 100 µM (inactive)
COC(=O)C1CC(C=[N+](C)C)=C(SC)N1C(=O)OCc1ccccc1 (stereo unspecified)	> 100 µM (inactive)
CCCCNC(=O)OCCN=c1c2ccccc2ccc2ccccc12	> 100 µM (inactive)
COc1ccc(NC(=O)C(=O)C2NC(=S)NC2=O)c(OC)c1 (stereo unspecified)	> 100 µM (inactive)
CCOC(=O)/C(C#N)=C/N(CC)/N=C/c1ccccc1	> 100 µM (inactive)
NC(Cc1ccc(OCc2ccccc2)cn1)C(=O)OCc1ccccc1 (stereo unspecified)	> 100 µM (inactive)

Query string: Suppose we examine the molecule "COc1cc(/C=C2\N=C(c3ccccc3)N(c3ccc4c(c3)Sc3cc(N5C(=O)/C(=C/c6cc(OC)c(OC)c(OC)c6)N=C5c5ccccc5)ccc3N4)C2=O)cc(OC)c1OC" ; what GI50 value has been reported?
Result string: 16.9 µM (inactive)

Query string: For the molecule shown here, "C=C1c2nc3ccccc3n2C=C(c2ccccc2)N1c1ccc(C)cc1" , give the reported GI50.
Result string: 80.4 µM (inactive)

Query string: Entry under review: O=C(Nc1ccc(C(F)(F)F)cc1[N+](=O)[O-])C(=O)C(C(=O)c1ccc2ccccc2c1)C1OC(=O)c2ccccc21 (stereo unspecified) . Reported GI50?
Result string: 10.1 µM (inactive)

Query string: Item under review: "c1ccc2c3c(ccc2c1)-c1[nH]ncc1CCO3" . Reported GI50?
Result string: 27.7 µM (inactive)

Query string: Quick check: GI50 of "Cc1ccccc1C(=O)Oc1ccc(O)cc1" ?
Result string: > 100 µM (inactive)

Query string: Item "N#CC(C#N)=C1CCCS(=O)(=O)c2ccccc21" has what recorded GI50?
Result string: > 100 µM (inactive)

Query string: Would you mind telling me what GI50 value was observed for "CCCCNC(=S)Nc1nc(C(=O)NNC(=O)c2ccccc2)cs1" ?
Result string: 17.9 µM (inactive)

Query string: I'd like to know its GI50. The molecule in question is "CC1=C(C)C(=O)C2=C(OCCCO2)C1=O"
Result string: > 10 µM (inactive)

Query string: Quick check: GI50 of "COc1ccc(C[C@]23CCC(=O)N2CCc2cc(OC)c(O)cc23)cc1O" ?
Result string: > 100 µM (inactive)
